- Test system: anti-Chlamydia abzymes
- Assay type: biochemical, human
- assay_context: patient serum; abzyme inhibitor added to diluent
endpoint_name: Inhibition of abzymes ability to cause: Serum lipid peroxidation, in MDA assay

Examples from the recorded data:
# compound, result
records = [
    ("O=C1O[C@H]([C@@H](O)CO)C(O)=C1O [Ascorbic acid]", "Positive"),
    ("OC[C@@H](O)[C@@H](O)[C@H](O)[C@H](O)CO [D-Mannitol]", "Negative"),
    ("CC(C)=CCC/C(C)=C/C=C/C(C)=C/C=C/C(C)=C/C=C/C=C(C)/C=C/C=C(C)/C=C/C=C(\\C)CCC=C(C)C [Lycopene]", "Negative"),
    ("CC[C@H]1OC(=O)[C@H](C)C(=O)[C@H](C)[C@@H](O[C@@H]2O[C@H](C)C[C@H](N(C)C)[C@H]2O)[C@](C)(OC)C[C@@H](C)C(=O)[C@H](C)[C@H]2N(CCCCn3cnc(-c4cccnc4)c3)C(=O)O[C@]12C [Telithromycin, Ketek, Telithromycin]", "Positive"),
    ("C[S+](C)[O-] [DMSO]", "Positive"),
]

Value of measured Inhibition of abzymes ability to cause: Serum lipid peroxidation, in MDA assay for the entry Cc1c(C)c2c(c(C)c1O)CC[C@@](C)(CCC[C@H](C)CCC[C@H](C)CCCC(C)C)O2 [(+) α-Tocopherol] : Negative

----------
- System: anti-Chlamydia abzymes
- Assay type: biochemical, human
endpoint_name: Inhibition of abzymes ability to cause: Damage of Chlamydia pneumoniae antigen, in ELISA

Examples from the recorded data:
# compound, measurement_target, result
rows = [
    ("O=C(O)c1ccccc1 [Benzoic acid]", "anti-Chlamydia abzymes", "Negative"),
    ("O=C(O)CN(CCN(CC(=O)O)CC(=O)O)CC(=O)O [EDTA]", "anti-Chlamydia abzymes", "Positive"),
    ("CC(=O)Oc1ccccc1C(=O)O [Acetyl salicylic acid]", "anti-Chlamydia abzymes", "Positive"),
    ("Cc1c(O)cc2c(c1C)O[C@](C)(CCC[C@H](C)CCC[C@H](C)CCCC(C)C)CC2 [(+) y-Tocopherol]", "anti-Chlamydia abzymes", "Negative"),
]

Next compound, Inhibition of abzymes ability to cause: Damage of Chlamydia pneumoniae antigen, in ELISA to be filled in.
Value of measured Inhibition of abzymes ability to cause: Damage of Chlamydia pneumoniae antigen, in ELISA for the entry CC1=C(/C=C/C(C)=C/C=C/C(C)=C/C=C/C=C(C)/C=C/C=C(C)/C=C/C2=C(C)CCCC2(C)C)C(C)(C)CCC1 [β-Carotene] : Negative
